Tested on: L1210 leukemia ip in BDF1 mice, survival T/C
Test: NCI In Vivo Anticancer Drug Screen. Data for tumor model L1210 Leukemia (intraperitoneal) in B6D2F1 (BDF1) mice
Settings: endpoint: mean survival time; dose: 100.0 mg/kg/injection; schedule: Q04DX003 (ip); vehicle: Klucel (hydroxypropylcellulose) (HPC); higher = longer survival
Experimental: The antitumor activity of compounds was measured in mice bearing transplantable tumors. Survival or tumor size were measured and the results are expressed as the measurement made in the treated group (T) divided by the measurement made in the vehicle treated control group (C). The tumor model used in this assay is L1210 Leukemia (intraperitoneal) in B6D2F1 (BDF1) mice
Inconclusive results and toxic doses are left out.
measurementKind: T/C

Example entries begin here.
                                   compound  measurementkind            result
0  COc1ccc(N2C(=O)C3C(C2=O)C2(Cl)C(Cl)=C(Cl)C3(Cl)C2(Cl)Cl)c(OC)c1 (stereo not drawn)              T/C  101 % of control
1   COc1ccc(NC(=O)Oc2c(C(C)C)cccc2C(C)C)cc1              T/C  100 % of control
2  CC(=O)Nc1ccc(NC(=O)Nc2ccc(C)cc2[N+](=O)[O-])cc1              T/C   92 % of control
3      COc1ccccc1NC(=O)Nc1ccc(Nc2ccccc2)cc1              T/C  103 % of control
4                CCc1ccccc1NC(=O)Sc1ccccc1C              T/C  110 % of control

Can you give me T/C for all of these, one by one?
1. C#CC1(O)CCCCC1
2. N#CC1(Cc2ccccc2)c2ccccc2-c2ccccc21
3. COc1ccc(/C=C(/C)[N+](=O)[O-])cc1OC
4. Nc1cc(Nc2ccc(S(N)(=O)=O)cc2)nc(N)n1

Reply:
94 % of control
98 % of control
97 % of control
93 % of control

Can you give me T/C for all of these, one by one?
1. COc1ccc(P(=NS(=O)(=O)c2ccc(C)cc2)(c2ccc(OC)cc2)c2ccc(OC)cc2)cc1
2. COC(=O)CNc1ccc(S(=O)(=O)c2ccc(N)cc2)cc1
3. c1ccc([C@H]2O[C@@H]2c2ccccc2)cc1

Reply:
["91 % of control", "97 % of control", "92 % of control"]

----------
System: L1210 leukemia ip in BDF1 mice, survival T/C
Experiment: NCI In Vivo Anticancer Drug Screen. Data for tumor model L1210 Leukemia (intraperitoneal) in B6D2F1 (BDF1) mice
Conditions: endpoint: mean survival time; dose: 100.0 mg/kg/injection; schedule: Q01DX001 (ip); vehicle: Klucel (hydroxypropylcellulose) (HPC); higher = longer survival
Inconclusive results and toxic doses are left out.
Kindly state T/C for each of the entries shown.

Example entries begin here.
In [3]: df
Out[3]:
                                   compound  measurementkind            result
0  CN(C)CC1(C)CCc2c(ccc3ccccc23)C1O (stereo not drawn)              T/C   94 % of control
1            CC(=O)NC12CC3CC(CC(C)(C3)C1)C2              T/C  103 % of control
2  CCSC(=O)N1C=Cc2ccccc2C1C#N (stereo not drawn)              T/C   95 % of control
3              COc1ccc2nc(NC(=O)NCCCl)sc2c1              T/C   90 % of control
4  Nc1c(Cl)ncnc1NC1COC(CO)C1O (stereo not drawn)              T/C  100 % of control
5                     Nc1cc(Cl)c2[nH]cnc2n1              T/C  118 % of control
6          c1ccc([C@H]2O[C@@H]2c2ccccc2)cc1              T/C   97 % of control
7        O=[N+]([O-])c1cccc(N=Cc2ccccc2O)c1              T/C   93 % of control
8        COc1ccc(S(=O)(=O)NCCC#N)cc1NC(C)=O              T/C   95 % of control
9   COC(=O)CCc1c(C)[nH]c(C(=O)OC(C)(C)C)c1C              T/C   97 % of control

Can you give me T/C for all of these, one by one?
1. CCOc1cccc(Cc2c[nH]c(=S)[nH]c2=O)c1
2. Nc1ccc2c(c1)C(=O)c1cc([N+](=O)[O-])ccc1-2

Reply:
["100 % of control", "94 % of control"]

Can you give me T/C for all of these, one by one?
1. O=c1cc(NCCc2ccccc2)[nH]c(=O)[nH]1
2. O=C1C=C(N2C3C4CCC(C4)C32)C(=O)C=C1c1ccccc1 (stereo not drawn)
3. O=C(Oc1cccc(OC(=O)c2ccc(Cl)cc2)c1)c1ccc(Cl)cc1

Reply:
1: 93 % of control; 2: 97 % of control; 3: 100 % of control

Can you give me T/C for all of these, one by one?
1. O=C(NC(=O)C(Cl)Cl)Nc1ccc2c(c1)Cc1ccccc1-2
2. Cc1ccc(NC(=O)c2cccc(F)c2)cc1Cl
3. CC(C)Nc1ccc(C(=O)O)cc1
4. CSc1nc(Cl)nc(C(Cl)(Cl)Cl)c1Cl
5. O=c1[nH]c(-c2ccccc2)c(CO)c(=O)[nH]1
6. Cc1cccc(NC(=O)Oc2ccccc2C(N)=O)c1

Reply:
1. 95 % of control
2. 97 % of control
3. 100 % of control
4. 89 % of control
5. 96 % of control
6. 94 % of control

All values here come from PubChem BioAssay AID248.
